Target: "Na^+ channel site 2" binding site
Assay: Affinity to the "Na^+ channel site 2" binding site
Conditions: typically at a test concentration of 10 μM
Reported Endpoint: Ki (µM)
Give a bare numeral; the unit µM is implied.

Recorded results for 2 compounds are shown here.
INSERT INTO results (mol_smiles, result_units, test_value) VALUES
  ('CN(C)CCOc1ccccc1-n1cnc(-c2ccccc2)n1', 'µM', 3.7),
  ('CN(C)CCOc1ccccc1-c1coc(-c2ccccc2)n1', 'µM', 4.6);

get_value(item= COc1ccccc1-c1c[nH]c(-c2ccccc2)c1 , readout=Ki) returns 1.1

// field: Ki; key: CN(C)CCOc1ccccc1-c1c[nH]c(-c2ccccc2)n1 ; value = 1.8

For CN(C)CCOc1ccccc1-c1nn(-c2ccccc2)c(=O)o1 the compound record lists Ki as 0.99
